Data origin: ChEMBL document CHEMBL3988442

biological target: Protein translocase subunit SecA (Escherichia coli (strain K12)); experiment: Assay to Identify E. coli SecA ATPase Inhibitors; assay type: functional; parameters: scale not given: direction of the effect not stated beside the values; details: 30 µM
Measured potencies and affinities stand elsewhere.
readoutType: Percent Effect (%)
Respond with the bare value in %.

Study these solved cases before continuing.
{"molecule": "O=C(NCCn1ccnc1)c1cccc(F)c1", "studyTarget": "Protein translocase subunit SecA (Escherichia coli (strain K12))", "outputUnit": "%", "Percent Effect": -1.92}
{"molecule": "CC(C)S(=O)(=O)NCC1CCCN(C(=O)c2cccnc2)C1 (stereo not drawn)", "studyTarget": "Protein translocase subunit SecA (Escherichia coli (strain K12))", "outputUnit": "%", "Percent Effect": -1.12}
{"molecule": "Cc1ccc(CCNC(=O)N2CCCC(Cc3nccn3C)C2)cn1 (stereo not drawn)", "studyTarget": "Protein translocase subunit SecA (Escherichia coli (strain K12))", "outputUnit": "%", "Percent Effect": -5.16}

What value of measured Percent Effect is listed for C[C@@H]1CN(C(=O)c2ccc(C#N)nc2)CC[C@@]1(O)C1CCOCC1 ?
-2.31

Item under review: CC(Cn1ccnc1)NC(=O)NCCNC(=O)C(C)C (stereo not drawn) . Reported Percent Effect?
2.77

For O=C(c1cnc(C2CC2)s1)N1CCCCC1Cn1cccn1 (stereo not drawn) , what is its reported Percent Effect?
-2.96

----------
# Percent Effect annotations
biological target: AMP-activated protein kinase, AMPK (Homo sapiens) (UniProt P54646+O43741+P54619+Q9UGJ0+Q9Y478+Q13131+Q9UGI9); test: AMP-dependent Kinase enzyme assay. An in vitro enzyme assay that detects ADP turnover that is directly proportional to AMPK activity. This uses naive AMPK that is activated during the assay with MK-8722; format: functional; design: scale not given: direction of the effect not stated beside the values; conditions: 30 µM
Write it as a number; the unit % goes unstated.

Recorded results for 5 compounds are shown here.
{"compound": "CCS(=O)(=O)N(C)c1ccc(C(=O)N2CCCC(C)C2)cc1 (configuration not stated)", "Percent Effect, %": -4.69}
{"compound": "COc1cc(N2C[C@H]3OCC[C@H]3[C@H](C(=O)NC3CC3)C2)ncn1", "Percent Effect, %": -1.57}
{"compound": "CCS(=O)(=O)N1CC[C@]2(C[C@@H](OCC3CC3)CO2)C1", "Percent Effect, %": -4.19}
{"compound": "COc1cc(OC)c(C2Nc3cc(Cl)ccc3C3=NCCN32)cc1OC (configuration not stated)", "Percent Effect, %": -2.93}
{"compound": "CNC(=O)CCc1cc(C)nc(C2CCCN2)n1 (configuration not stated)", "Percent Effect, %": 6.23}

Given the entry CC(C#N)CSc1ccccc1NCC(=O)Nc1ccc(F)cc1 (configuration not stated) , report its measured Percent Effect.
17.1

----------
Target: Proteasome subunit beta (Trypanosoma cruzi)
Sequence (whole entry): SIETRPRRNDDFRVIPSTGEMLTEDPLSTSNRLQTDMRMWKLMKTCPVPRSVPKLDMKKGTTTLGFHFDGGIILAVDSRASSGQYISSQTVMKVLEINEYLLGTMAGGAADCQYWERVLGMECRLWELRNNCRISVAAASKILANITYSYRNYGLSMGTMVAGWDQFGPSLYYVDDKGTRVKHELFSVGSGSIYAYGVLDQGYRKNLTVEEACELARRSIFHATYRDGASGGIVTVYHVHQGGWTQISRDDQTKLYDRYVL
Assay: Trypanosoma cruzi proteasome chymotrypsin-like activity (TcProtChymo) assay. Further: in the data most compounds retested in dose-response had high values.
Type: functional
Design: scale not given: direction of the effect not stated beside the values
Details: 9.37 µM
readoutType: Percent Effect
Param answer (str): number followed by unit.

Worked set:
{"compound": "CCOc1ccc(N2CCCN=C2NC(=O)c2cccc(Cl)c2)cc1", "Percent Effect": "14.6%"}
{"compound": "CC(C)Cc1noc(CN2CCCC(Cn3cncn3)C2)n1 (stereo not drawn)", "Percent Effect": "7%"}
{"compound": "CC(C(N)=O)S(=O)(=O)Cc1cc(Cl)c2c(c1)OCO2 (stereo not drawn)", "Percent Effect": "6.51%"}
{"compound": "CCN1CC(C(=O)NCc2ccccc2-n2cccn2)CC1=O (stereo not drawn)", "Percent Effect": "15%"}

Given the entry Cc1nc(NCc2cccnc2)c2c(n1)c(C)nn2C , report its measured Percent Effect.
7.99%

Which Percent Effect reading was recorded for the compound CC(C)N(C)Cc1cn2c(n1)CN(C(=O)Cc1ccsc1)CC2 ?
7.28%

// query Percent Effect value for entry O=C(CCC1CC1)N1C[C@@H](CN2CCCC2)[C@@H](CO)C1
3.49%

Any idea what Percent Effect was measured for CCc1cc(N2CCCNCC2)n2nc(C)c(C)c2n1 ?
16%

Request the reported Percent Effect associated with Cc1c[nH]c(CN(C)c2nc(C3CCCC3)nc3c2cnn3C)n1
3.68%
